# PROTOCOL_SUMMARY: Ross-Miles foam height assay of aldonamides (Examples 81-84)
# Type: physicochemical
# MEASUREMENT_SETUP: after 10 minutes; 0.1% aldonamide, 40° C. (if not soluble, about 5°-10° C. above Krafft point), 0 ppm hardness
Threshold rule: Foam Height Final greater than or equal to 100 mm is rule met; below that, rule not met.

MOLECULE	CATEGORY
CCCCCCCC/C=C\CCCCCCCCNCCCNC(=O)[C@H](O)[C@@H](O)[C@H](O)[C@H](O)CO [Oleylaminopropyl D-Gluconamide]	rule not met
CCCCCCCNC(=O)[C@H](O)[C@@H](O)[C@H](O)[C@H](O)CO [C7 D-Gluconamide]	rule not met
CCCCCCCCCCCCOC(=O)CCNC(=O)[C@H](O)[C@@H](O)[C@H](O[C@@H]1O[C@H](CO)[C@H](O)[C@H](O)[C@H]1O)[C@H](O)CO [D-Lactobionyl C12 β-Alaninate, N-D-Lactobionyl Dodecyl β-Alaninate]	rule met
CCCCCCCCCCCCOC(=O)C(C)NC(=O)[C@H](O)[C@@H](O)[C@H](O)[C@H](O)CO (mixture of isomers) [N--D-Gluconyl C12 DL-Alaninate, N-D-Gluconyl Dodecyl DL-Alaninate]	rule met
CCCCCCCCCCCCOCCOCCOC(=O)CNC(=O)[C@H](O)[C@@H](O)[C@H](O)[C@H](O)CO [N--D-Gluconyl C12 Di(oxyethyl) Glycinate]	rule met

Problem: State whether the measured Foam Height Final reaches 100 mm, counting equality as reaching it, for CCCCCCCCCCCCOC(=O)CNC(=O)[C@H](O)[C@@H](O)[C@H](O)[C@H](O)CO [N--D-Gluconyl C12 Glycinate, N-D-Gluconyl Dodecyl Glycinate]
Solution: rule met

====

# PROTOCOL_SUMMARY: Effectiveness in reducing surface tension (Example 93)
# Assay type: physicochemical
# MEASUREMENT_SETUP: 60 °C, estimated by extrapolation
Listed molecules paired with reported .PI.cmc (surface pressure)
Record the value in dyn/cm, omitting the unit from your answer.

Examples from the recorded data:
> print(dat)
                              mol.smiles  unit.text  measurement
1           CCCCCCCCCCCCOCCOCCOCCOCCOCCO     dyn/cm         40.7
2                 CCCCCCCCCCCCOCCOCCOCCO     dyn/cm         41.4
3  CCCCCCCCCCCCOCCOCCOCCOCCOCCOCCOCCOCCO     dyn/cm         36.3
4              CCCCCCCCCCCCOCCOCCOCCOCCO     dyn/cm         40.7

Next, consider the following molecule.
Problem: Entry CCCCCCCCCCCCOCCOCCOCCOCCOCCOCCOCCO : reported .PI.cmc (surface pressure) = ?
Solution: 36.8

====

# PROTOCOL_SUMMARY: Ross-Miles foam height assay of aldonamides (Examples 81-84)
# Type: physicochemical
# MEASUREMENT_SETUP: after 10 minutes; 0.1% aldonamide, 40° C. (if not soluble, about 5°-10° C. above Krafft point), 0 ppm hardness
Threshold rule: Foam Height Final greater than or equal to 100 mm is 1.0; below that, 0.0.

A selection of reference data follows.
COMPOUND	CATEGORY
CCCCCCCCCCCCOC(=O)CNC(=O)[C@H](O)[C@@H](O)[C@H](O[C@@H]1O[C@H](CO)[C@H](O)[C@H](O)[C@H]1O)[C@H](O)CO [D-Lactobionyl C12 Glycinate, N-D-Lactobionyl Dodecyl Glycinate]	1.0
CCCCCCCCCCCCOCCCNC(=O)[C@H](O)[C@H](O)[C@@H](O)[C@H](O)[C@H](O)CO [C12 Oxypropyl D-Glucoheptonamide]	0.0
CCCCCCCCCNC(=O)[C@H](O)[C@@H](O)[C@H](O[C@@H]1O[C@H](CO)[C@H](O)[C@H](O)[C@H]1O)[C@H](O)CO [C9 D-Lactobionamide, Nonyl D-Lactobionamide]	0.0

Problem: State whether the measured Foam Height Final reaches 100 mm, counting equality as reaching it, for CCCCCCCCCCCCCCCCNC(=O)[C@H](O)[C@@H](O)[C@H](O[C@@H]1O[C@H](CO)[C@H](O)[C@H](O)[C@H]1O)[C@H](O)CO [C16 D-Lactobionamide]
Solution: 0.0

====

# PROTOCOL_SUMMARY: Ross-Miles foam height assay of aldonamides (Examples 81-84)
# Assay type: physicochemical
# MEASUREMENT_SETUP: 0.1% aldonamide, 40° C. (if not soluble, about 5°-10° C. above Krafft point), 0 ppm hardness
METRIC: Foam Height Initial (mm)
Record the value in mm, omitting the unit from your answer.

COMPOUND	Foam Height Initial (mm)
CCCCCCCCCCCCOC(=O)CCNC(=O)[C@H](O)[C@@H](O)[C@H](O[C@@H]1O[C@H](CO)[C@H](O)[C@H](O)[C@H]1O)[C@H](O)CO [D-Lactobionyl C12 β-Alaninate, N-D-Lactobionyl Dodecyl β-Alaninate]	159

Problem: Entry CCCCCCCCCCCCCCOCCCNC(=O)[C@H](O)[C@@H](O)[C@H](O[C@@H]1O[C@H](CO)[C@H](O)[C@H](O)[C@H]1O)[C@H](O)CO [C14 Oxypropyl D-Lactobionamide, Tetradecyloxypropyl D-Lactobionamide] : reported Foam Height Initial = ?
Solution: 163

Problem: Entry CCCCCCCCCCCCOCCOCCOC(=O)CNC(=O)[C@H](O)[C@@H](O)[C@H](O)[C@H](O)CO [N--D-Gluconyl C12 Di(oxyethyl) Glycinate] : reported Foam Height Initial = ?
Solution: 203

====

# PROTOCOL_SUMMARY: Ross-Miles foam height assay of aldonamides (Examples 81-84)
# Type: physicochemical
# MEASUREMENT_SETUP: 0.1% aldonamide, 40° C. (if not soluble, about 5°-10° C. above Krafft point), 0 ppm hardness
METRIC: Foam Height Initial

> print(dat)
                                   molecule  measurement
1  CCCCCCCCCCCCNC(=O)[C@H](O)[C@H](O)[C@@H](O)[C@@H](O)CO [C12 L-Mannonamide]    Insoluble
2  CCCCCCCCCCCCNC(=O)[C@H](O)[C@@H](O)[C@@H](O)[C@H](O)CO [C12 D-Galactonamide]    Insoluble
3  CCCCCCCCCCCCCCNC(=O)[C@H](O)[C@@H](O)[C@H](O)[C@H](O)CO [C14 D-Gluconamide]    Insoluble
